Conditions: 311.16 K; 101.33 kPa; Liquid; Pulse-echo method
Reported speed of sound values follow for various compounds
Reported Endpoint: speed of sound (m/s)

Compound	Recorded Measurement
CCCCC(=O)[O-].C[NH2+]CCO [2-hydroxy-N-methylethanaminium pentanoate]	1508.3
CCCC(=O)[O-].C[NH2+]CCO [N-methyl-2-hydroxyethylammonium butanoate]	1573.7
CC(C)C(=O)[O-].C[NH2+]CCO [2-hydroxy-N-methylethanaminium isobutyrate]	1574.6
C[NH2+]CCO.O=C[O-] [2-hydroxy-N-methylethanaminium formate]	1790
CCC(=O)[O-].C[NH2+]CCO [2-hydroxy-N-methylethanaminium propionate]	1651.7
